Molecular target: hA3AR (Homo sapiens)
Construct: expressed in transfected cells; host or cells: HeLa (HeLa-A3) cell membranes
Sequence (P0DMS8 1-318): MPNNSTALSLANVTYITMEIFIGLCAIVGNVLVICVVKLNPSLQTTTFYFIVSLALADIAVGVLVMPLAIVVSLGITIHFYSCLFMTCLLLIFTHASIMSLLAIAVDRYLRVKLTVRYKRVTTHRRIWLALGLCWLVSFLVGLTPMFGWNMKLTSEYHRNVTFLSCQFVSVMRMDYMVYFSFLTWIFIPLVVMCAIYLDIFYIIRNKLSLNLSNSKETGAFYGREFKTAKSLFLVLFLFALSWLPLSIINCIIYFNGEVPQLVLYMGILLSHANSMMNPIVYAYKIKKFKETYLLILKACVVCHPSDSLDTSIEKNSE
Experiment: Radioligand binding competition, [3H]NECA, membranes from HeLa-A3 cells
Settings: 1 μM, [3H]NECA, human HeLa cells, n = 2
Mark class 1 for % at 1 μM hA3 (percentage displacement of specific binding) under 7%, class 0 if at or over.

A selection of reference data follows.
MOLECULE	CATEGORY_LABEL
CCOC(=O)C1=C(C)Nc2nc3cc(Cl)ccc3n2C1c1cccs1 (stereo not shown) [16m]	class 1
CCOC(=O)C1=C(C)Nc2nc3cc(F)ccc3n2C1c1ccoc1 (stereo not shown) [16c]	class 1
CCOC(=O)C1=C(C)Nc2nc3ccc(Cl)cc3n2C1c1cocn1 (stereo not shown) [17c]	class 0
CC1=C(C(=O)OC(C)C)[C@@H](c2ccco2)n2c(nc3ccccc32)N1 [(S)-ISAM-140]	class 1
CCOC(=O)C1=C(C)Nc2nc3cc(F)ccc3n2C1c1cocn1 (stereo not shown) [18a]	class 0

Input line: Lab note: confirm whether the reported % at 1 μM hA3 (percentage displacement of specific binding) for this molecule is below 7%, equality not counting. molecule: CCOC(=O)C1=C(C)Nc2nc3cc(F)ccc3n2C1c1ccco1 (stereo not shown) [16a]
Output line: class 1

Input line: Lab note: confirm whether the reported % at 1 μM hA3 (percentage displacement of specific binding) for this molecule is below 7%, equality not counting. molecule: CCOC(=O)C1=C(C)Nc2nc3cc(Br)ccc3n2[C@@H]1c1ccoc1 [(R)-16s]
Output line: class 0

Input line: Lab note: confirm whether the reported % at 1 μM hA3 (percentage displacement of specific binding) for this molecule is below 7%, equality not counting. molecule: CCOC(=O)C1=C(C)Nc2nc3ccc(Br)cc3n2C1c1ccoc1 (stereo not shown) [15s]
Output line: class 0

----------
Biological target: hA2AAR (Homo sapiens)
Construct: expressed in transfected cells; host or cells: HeLa (HeLa-A2A) cell membranes
Sequence (P29274 whole entry): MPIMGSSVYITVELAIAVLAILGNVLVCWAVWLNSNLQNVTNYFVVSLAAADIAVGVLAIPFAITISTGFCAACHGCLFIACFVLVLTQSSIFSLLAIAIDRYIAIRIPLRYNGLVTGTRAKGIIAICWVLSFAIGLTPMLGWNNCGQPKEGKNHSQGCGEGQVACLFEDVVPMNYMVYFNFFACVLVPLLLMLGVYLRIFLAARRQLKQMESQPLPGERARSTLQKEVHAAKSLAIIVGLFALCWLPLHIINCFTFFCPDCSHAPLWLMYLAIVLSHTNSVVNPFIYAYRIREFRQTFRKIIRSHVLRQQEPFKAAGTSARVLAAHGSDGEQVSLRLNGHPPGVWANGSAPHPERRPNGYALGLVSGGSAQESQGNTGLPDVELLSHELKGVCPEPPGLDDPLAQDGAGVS
Assay: Radioligand binding competition, [3H]ZM241385, membranes from HeLa-A2A cells
Conditions: 1 μM, [3H]ZM241385, human HeLa cells, n = 2
Examples of compounds with documented % at 1 μM hA2A (percentage displacement of specific binding) follow.
Numeric answer only, unit % assumed.

As a guide, the following entries are already answered.
COMPOUND	READOUT_UNIT	ASSAY_RESULT
CCOC(=O)C1=C(C)Nc2nc3ccc(Cl)cc3n2C1c1cccs1 (centres unmarked) [15m]	%	3
CC1=C(C(=O)OC(C)C)C(c2cccs2)n2c(nc3cc(F)ccc32)N1 (centres unmarked) [16f]	%	1
CCOC(=O)C1=C(C)Nc2nc3ccc(Cl)cc3n2C1c1ccco1 (centres unmarked) [15i]	%	2

Input line: Report % at 1 μM hA2A (percentage displacement of specific binding), nothing else, for this compound: CCOC(=O)C1=C(C)Nc2nc3ccc(F)cc3n2C1c1cccs1 (centres unmarked) [15e]
Output line: 1

Each recorded value in this set is attributed to paper PMC9841532.
